# target_desc: T1, cynomolgus monkey latent myostatin (cynomolgus monkey, UniProt Q95J86 25-266; Q95J86 267-375, limits assumed)
# T1 construct: also called cyno latent myostatin
# T1 sequence 1: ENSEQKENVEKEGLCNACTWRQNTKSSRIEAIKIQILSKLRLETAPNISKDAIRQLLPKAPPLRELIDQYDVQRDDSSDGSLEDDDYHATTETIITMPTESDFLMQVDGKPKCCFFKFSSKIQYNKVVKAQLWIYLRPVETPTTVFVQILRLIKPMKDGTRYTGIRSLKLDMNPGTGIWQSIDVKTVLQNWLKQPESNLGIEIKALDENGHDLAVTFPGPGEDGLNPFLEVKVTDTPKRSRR
# T1 sequence 2: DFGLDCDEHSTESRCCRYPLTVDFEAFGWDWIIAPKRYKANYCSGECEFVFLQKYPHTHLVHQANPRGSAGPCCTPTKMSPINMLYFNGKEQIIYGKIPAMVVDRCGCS
# experimental_details: SPR 37C
Listing of entries alongside the reported ratio of KD at pH 5.8/pH7.4.
Just the number.

Example entries begin here.
[[record]]
binder = "MS_M103205H1046-SG1/M103202L889-SK1 (antibody, human IgG1, kappa, V domains shown, also called MS1032LO10-SG1) VH: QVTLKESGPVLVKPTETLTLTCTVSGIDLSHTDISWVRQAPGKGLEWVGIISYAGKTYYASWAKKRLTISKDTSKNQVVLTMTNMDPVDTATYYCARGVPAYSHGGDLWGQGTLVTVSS VL: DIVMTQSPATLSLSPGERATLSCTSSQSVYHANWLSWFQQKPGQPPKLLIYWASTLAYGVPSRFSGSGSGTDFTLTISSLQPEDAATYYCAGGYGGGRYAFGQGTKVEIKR"
measured_metric = "ratio of KD at pH 5.8/pH7.4"
endpoint_result = 38

[[record]]
binder = "MS_M103245H795-SG1/M103202L1045-SK1 (antibody, human IgG1, kappa, V domains shown, also called MS1032LO21-SG1) VH: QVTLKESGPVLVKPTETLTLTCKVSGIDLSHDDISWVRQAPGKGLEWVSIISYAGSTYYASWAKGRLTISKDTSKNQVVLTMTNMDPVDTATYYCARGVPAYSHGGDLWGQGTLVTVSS VL: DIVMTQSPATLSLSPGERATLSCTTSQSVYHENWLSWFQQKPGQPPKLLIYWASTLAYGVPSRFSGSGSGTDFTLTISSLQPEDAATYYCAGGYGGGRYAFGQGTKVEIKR"
measured_metric = "ratio of KD at pH 5.8/pH7.4"
endpoint_result = 100


Now for a further binder.
Record MS_M103205H1004-SG1/M103202L889-SK1 (antibody, human IgG1, kappa, V domains shown, also called MS1032LO07-SG1) VH: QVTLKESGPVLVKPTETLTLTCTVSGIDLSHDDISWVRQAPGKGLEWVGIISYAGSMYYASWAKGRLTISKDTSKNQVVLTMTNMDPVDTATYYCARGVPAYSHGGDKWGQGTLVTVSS VL: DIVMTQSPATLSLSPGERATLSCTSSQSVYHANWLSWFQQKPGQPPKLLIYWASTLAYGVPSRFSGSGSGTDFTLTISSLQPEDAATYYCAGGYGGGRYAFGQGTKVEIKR , field ratio of KD at pH 5.8/pH7.4: 102
